Test system: Escherichia coli TOP10
methodDescription: shrunken log2 fold change of peptide-encoding DNA abundance (4.5 h post-induction vs induction); higher = less antimicrobial activity (less host growth inhibition)
recordedConditions: time post-induction: 4.5 h; library: site-saturation at positions 5, 18, 19, 20
Definition: the class of an entry is the range in band 1: < -0.2; band 2: ≥ -0.2 and < 0.4; band 3: ≥ 0.4 that contains its shrunken log2 fold change.

[[record]]
sequencestring = "RRIRHRPPRLPRPRPRPMKGPRP"
labelvalue = "band 2"

[[record]]
sequencestring = "RRIRTRPPRLPRPRPRPPLFPRP"
labelvalue = "band 3"

[[record]]
sequencestring = "RRIRERPPRLPRPRPRPIIEPRP"
labelvalue = "band 2"

[[record]]
sequencestring = "RRIRVRPPRLPRPRPRPDKVPRP"
labelvalue = "band 1"

[[record]]
sequencestring = "RRIRLRPPRLPRPRPRPGPVPRP"
labelvalue = "band 3"

[[record]]
sequencestring = "RRIRRRPPRLPRPRPRPAPPPRP"
labelvalue = "band 3"

[[record]]
sequencestring = "RRIRGRPPRLPRPRPRPTTQPRP"
labelvalue = "band 3"

[[record]]
sequencestring = "RRIRQRPPRLPRPRPRPWFMPRP"
labelvalue = "band 1"

[[record]]
sequencestring = "RRIRYRPPRLPRPRPRPPTMPRP"
labelvalue = "band 1"

[[record]]
sequencestring = "RRIRLRPPRLPRPRPRPKHRPRP"
labelvalue = "band 2"

[[record]]
sequencestring = "RRIRGRPPRLPRPRPRPMFAPRP"
labelvalue = "band 3"

[[record]]
sequencestring = "RRIRHRPPRLPRPRPRPVNMPRP"
labelvalue = "band 2"

[[record]]
sequencestring = "RRIRIRPPRLPRPRPRPFVSPRP"
labelvalue = "band 1"

[[record]]
sequencestring = "RRIRSRPPRLPRPRPRPVIQPRP"
labelvalue = "band 2"

[[record]]
sequencestring = "RRIRQRPPRLPRPRPRPRCIPRP"
labelvalue = "band 2"


###

Entries and their measured shrunken log2 fold change follow.
Test system: Escherichia coli TOP10;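 note: peptides expressed intracellularly from a pBAD plasmid library in pooled LB shake-flask culture, induced with 0.3% L-arabinose, DNA abundance read by NGS, three biological replicates, DESeq2 with apeglm shrinkage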
methodDescription: shrunken log2 fold change of peptide-encoding DNA abundance (4.5 h post-induction vs induction); higher = less antimicrobial activity (less host growth inhibition)
recordedConditions: time post-induction: 4.5 h; library: site-saturation at positions 5, 18, 19, 20
endpointName: shrunken log2 fold change

[[record]]
sequencestring = "RRIRSRPPRLPRPRPRPFCGPRP"
systemname = "Escherichia coli TOP10"
testvalue = -0.201

[[record]]
sequencestring = "RRIRHRPPRLPRPRPRPKCCPRP"
systemname = "Escherichia coli TOP10"
testvalue = -0.0444

[[record]]
sequencestring = "RRIRFRPPRLPRPRPRPILRPRP"
systemname = "Escherichia coli TOP10"
testvalue = -0.156

[[record]]
sequencestring = "RRIRVRPPRLPRPRPRPKDMPRP"
systemname = "Escherichia coli TOP10"
testvalue = -0.272

[[record]]
sequencestring = "RRIRIRPPRLPRPRPRPLLPPRP"
systemname = "Escherichia coli TOP10"
testvalue = -0.0454

[[record]]
sequencestring = "RRIRLRPPRLPRPRPRPLVIPRP"
systemname = "Escherichia coli TOP10"
testvalue = -0.33

[[record]]
sequencestring = "RRIRSRPPRLPRPRPRPGVQPRP"
systemname = "Escherichia coli TOP10"
testvalue = -0.0497

[[record]]
sequencestring = "RRIRYRPPRLPRPRPRPMNNPRP"
systemname = "Escherichia coli TOP10"
testvalue = -1.28

[[record]]
sequencestring = "RRIRGRPPRLPRPRPRPMRAPRP"
systemname = "Escherichia coli TOP10"
testvalue = 1.74

[[record]]
sequencestring = "RRIRYRPPRLPRPRPRPDMFPRP"
systemname = "Escherichia coli TOP10"
testvalue = -0.0113

[[record]]
sequencestring = "RRIRSRPPRLPRPRPRPSQVPRP"
systemname = "Escherichia coli TOP10"
testvalue = -0.323

[[record]]
sequencestring = "RRIRVRPPRLPRPRPRPIGFPRP"
systemname = "Escherichia coli TOP10"
testvalue = 0.187

[[record]]
sequencestring = "RRIRWRPPRLPRPRPRPHYKPRP"
systemname = "Escherichia coli TOP10"
testvalue = -0.631

[[record]]
sequencestring = "RRIRPRPPRLPRPRPRPHDRPRP"
systemname = "Escherichia coli TOP10"
testvalue = -0.0974

[[record]]
sequencestring = "RRIRDRPPRLPRPRPRPQTHPRP"
systemname = "Escherichia coli TOP10"
testvalue = 0.269


Origin of measurements: the supplement of paper PMC9112550
